# binding signal per record follows
- TESTED_TARGET: RELB subunit;p50 subunit (Homo sapiens;Homo sapiens, UniProt Q01201;P19838 120-401;7-356)
- METHOD: protein binding microarray; high values mean tight binding
- CONDITION_SUMMARY: dsDNA, one strand shown
State just the number; it will be interpreted in z-score.

> print(dat)
   residue.sequence   readout.label  readout.units  quantitative.readout
1       AGAAACGTCCT  binding signal        z-score                -0.947
2       GAAGAAATCCC  binding signal        z-score                 0.876
3       CGAGTCTTCCC  binding signal        z-score                -0.386

Task item: Report binding signal for CGATGTACCCC please.
Reply: 0.299

---

- TESTED_TARGET: RELB subunit;p52 subunit (Homo sapiens;Homo sapiens, UniProt Q01201;Q00653 120-401;4-332)
- Sequence 1: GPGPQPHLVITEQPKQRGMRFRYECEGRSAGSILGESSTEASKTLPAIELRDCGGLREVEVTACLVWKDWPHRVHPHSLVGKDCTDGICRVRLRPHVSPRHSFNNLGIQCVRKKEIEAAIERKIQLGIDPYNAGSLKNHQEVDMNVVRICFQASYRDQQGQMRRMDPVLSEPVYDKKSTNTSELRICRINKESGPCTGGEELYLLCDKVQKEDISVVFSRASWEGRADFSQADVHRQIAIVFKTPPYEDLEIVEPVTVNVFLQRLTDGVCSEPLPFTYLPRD
- Sequence 2: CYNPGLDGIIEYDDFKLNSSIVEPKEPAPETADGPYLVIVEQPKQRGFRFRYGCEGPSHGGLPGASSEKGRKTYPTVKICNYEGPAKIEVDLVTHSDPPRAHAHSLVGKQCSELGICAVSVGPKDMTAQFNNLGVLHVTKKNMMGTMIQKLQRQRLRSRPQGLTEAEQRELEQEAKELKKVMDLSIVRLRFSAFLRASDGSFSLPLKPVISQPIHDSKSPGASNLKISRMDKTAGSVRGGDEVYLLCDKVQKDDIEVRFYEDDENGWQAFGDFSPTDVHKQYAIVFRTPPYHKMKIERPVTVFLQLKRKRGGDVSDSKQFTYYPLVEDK
- METHOD: protein binding microarray; high values mean tight binding
- CONDITION_SUMMARY: dsDNA, one strand shown
# binding signal per record follows
State just the number; it will be interpreted in z-score.

Answered cases to consult:
> print(dat)
   residue.sequence   readout.label  quantitative.readout
1       AGAAGTCTCCT  binding signal                -0.985
2       AAAGTGATCCT  binding signal                -0.978
3       CGAAGACTCCC  binding signal                -0.747
4       GGAGAACCCCC  binding signal                  1.59
5       GAGTGCTTCCC  binding signal                -0.383

Task item: Report binding signal for AGATTCTTCCT please.
Reply: -0.93

Task item: Please give the result for AAGAGCTTCCC too.
Reply: -0.671

---

- TESTED_TARGET: C-Rel subunit;p52 subunit (Homo sapiens;Homo sapiens, UniProt Q04864;Q00653 1-285;4-332)
- Sequence 1: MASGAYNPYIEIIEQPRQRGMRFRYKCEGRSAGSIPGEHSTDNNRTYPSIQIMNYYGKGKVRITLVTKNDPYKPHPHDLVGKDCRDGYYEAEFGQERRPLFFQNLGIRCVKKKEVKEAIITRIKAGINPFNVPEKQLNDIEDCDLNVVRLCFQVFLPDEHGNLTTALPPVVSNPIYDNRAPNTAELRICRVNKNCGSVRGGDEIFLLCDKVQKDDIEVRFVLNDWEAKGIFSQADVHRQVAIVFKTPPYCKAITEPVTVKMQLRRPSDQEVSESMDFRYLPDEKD
- Sequence 2: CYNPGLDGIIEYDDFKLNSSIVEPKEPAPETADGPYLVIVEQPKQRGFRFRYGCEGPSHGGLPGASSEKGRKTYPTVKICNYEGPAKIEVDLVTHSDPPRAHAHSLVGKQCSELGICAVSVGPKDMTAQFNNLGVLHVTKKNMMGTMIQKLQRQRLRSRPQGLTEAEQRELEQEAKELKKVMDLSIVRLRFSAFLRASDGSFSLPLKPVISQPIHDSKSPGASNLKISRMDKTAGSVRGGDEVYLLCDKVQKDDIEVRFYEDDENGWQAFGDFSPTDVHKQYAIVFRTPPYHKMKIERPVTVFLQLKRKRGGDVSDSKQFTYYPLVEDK
- METHOD: protein binding microarray; high values mean tight binding
- CONDITION_SUMMARY: dsDNA, one strand shown
Classification field: enter 1 (yes) for binding signal values not below 0.09 z-score, 0 (no) for values below it.

> print(dat)
   residue.sequence  category
1       GGAGACTTCCC   1 (yes)
2       AGGAATGCCCT   1 (yes)
3       GAGATCCTCCC    0 (no)

Task item: Can AGATGAATCCT be said to have binding signal at or above 0.09 z-score?
Reply: 0 (no)

Task item: Please give the result for AGGTTTGTCCC too.
Reply: 1 (yes)

Task item: Please give the result for AGGTTTATCCT too.
Reply: 0 (no)

Task item: Please give the result for CGAAGTGTCCT too.
Reply: 0 (no)

Task item: Please give the result for GGAAGAGCCCT too.
Reply: 0 (no)

Task item: Please give the result for AGGGTTGCCCT too.
Reply: 0 (no)

Task item: Please give the result for GAATTATTCCC too.
Reply: 1 (yes)

Where do these numbers come from? They come from paper PMC3218832.
